- TARGET SYSTEM: human PD-1 expressed on cells (CHO human PD-1 cells) (human, UniProt Q15116 21-288)
- Sequence (Q15116 21-288): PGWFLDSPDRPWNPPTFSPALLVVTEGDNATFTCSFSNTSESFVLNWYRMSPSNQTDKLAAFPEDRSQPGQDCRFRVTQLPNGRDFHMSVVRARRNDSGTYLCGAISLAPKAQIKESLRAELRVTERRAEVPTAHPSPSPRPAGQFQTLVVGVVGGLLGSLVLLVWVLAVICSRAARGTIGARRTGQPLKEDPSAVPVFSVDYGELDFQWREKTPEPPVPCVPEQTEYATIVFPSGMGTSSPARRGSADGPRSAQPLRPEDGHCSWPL
- PROCEDURE SUMMARY: cell-based or functional assay
RESULT TYPE: Reporter Assay EC50 (nM)
// note: answer is a bare numeric in nM

BINDER	Reporter Assay EC50 (nM)
Humabody® 1.71 (VHH) VHH: QVQLVESGGGLVKPGGSLRLSCAASGFTFGGSSMTWMRQAPGKGLEWVSYISSGGGVKFYTDSVKGRFTISRDNAKNSLYLQMNSLRADDTAVYYCAREAPLRLGESPHDAFDISGQGTMVTVSS	7.43

Now look at this entry.
In: Recorded Reporter Assay EC50 of Humabody® 1.48 (VHH, human VH single domain antibody) VHH: QVQLVESGGGLVKPGGSLRLSCAASGFTFSDSSMTWMRQAPGKGLEWVSYISSGGGVKFYADSVKGRFTISRDNAKNSLYLQMNSLRADDTAVYYCAREAPLRLGESPHDAFDIWGQGTMVTVSS , please.
Out: 18
